src = the supplement of paper PMC10849652

- TESTED SYSTEM: ZBTB43 (UniProt O43298)
- Sequence (O43298 whole entry, looked up): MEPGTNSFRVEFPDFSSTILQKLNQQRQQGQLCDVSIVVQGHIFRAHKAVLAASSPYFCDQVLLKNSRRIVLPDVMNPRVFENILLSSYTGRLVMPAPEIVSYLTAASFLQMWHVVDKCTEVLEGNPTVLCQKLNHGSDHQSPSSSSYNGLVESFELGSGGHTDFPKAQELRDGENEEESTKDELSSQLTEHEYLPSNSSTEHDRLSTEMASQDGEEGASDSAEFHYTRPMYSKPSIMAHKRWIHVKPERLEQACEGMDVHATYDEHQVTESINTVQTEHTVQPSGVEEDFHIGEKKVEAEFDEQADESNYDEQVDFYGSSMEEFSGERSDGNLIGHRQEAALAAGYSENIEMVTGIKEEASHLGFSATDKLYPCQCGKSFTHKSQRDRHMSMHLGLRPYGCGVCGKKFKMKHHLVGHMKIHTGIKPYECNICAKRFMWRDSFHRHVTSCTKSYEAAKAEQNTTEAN
- ASSAY SUMMARY: log2 fold change, soluble protein after heating vs DMSO (PISA); higher = thermal stabilisation; K562 cells, 10 uM, 30 min; active = over 0.2 and 3.5 SD of the protein, either way, in both replicates (recomputed)
Targets with a hit are over-represented here; the source holds about 7,900 in all. About 0.6% of all pairs of compound and target were hits.
Please respond with reported log2 fold change for every item in the list.

Which log2 fold change is listed for CC1=C(C(=O)Nc2cc3cn[nH]c3cc2F)C(c2ccc(C(F)(F)F)cc2)CC(=O)N1 (stereo not given) ?
-0.04 (inactive)

Which log2 fold change value belongs to Cn1c2cc(S(C)=O)sc2c2cnn(Cc3cccc(N)c3)c(=O)c21 (stereo not given) ?
0.017 (inactive)

Entry under review: C=CC(=O)N1CCC[C@@H](n2nc(-c3ccc(Oc4ccccc4)cc3)c3c(N)ncnc32)C1 [ibrutinib] . Reported log2 fold change?
0.064 (inactive)

Could you share which log2 fold change value was measured for NCC(=O)Nc1ccc(-n2nc(C(F)(F)F)cc2-c2ccc3c(ccc4ccccc43)c2)cc1 ?
0 (inactive)

Give its log2 fold change value. Item: CN(CCOc1ccc(C[C@@H]2SC(=O)NC2=O)cc1)c1ccccn1 (racemic) [rosiglitazone]
0.052 (inactive)
